# maps each entry to its inhibition
Target: Cholinesterase (Equus caballus) (UniProt P81908)
Sequence (P81908 whole entry): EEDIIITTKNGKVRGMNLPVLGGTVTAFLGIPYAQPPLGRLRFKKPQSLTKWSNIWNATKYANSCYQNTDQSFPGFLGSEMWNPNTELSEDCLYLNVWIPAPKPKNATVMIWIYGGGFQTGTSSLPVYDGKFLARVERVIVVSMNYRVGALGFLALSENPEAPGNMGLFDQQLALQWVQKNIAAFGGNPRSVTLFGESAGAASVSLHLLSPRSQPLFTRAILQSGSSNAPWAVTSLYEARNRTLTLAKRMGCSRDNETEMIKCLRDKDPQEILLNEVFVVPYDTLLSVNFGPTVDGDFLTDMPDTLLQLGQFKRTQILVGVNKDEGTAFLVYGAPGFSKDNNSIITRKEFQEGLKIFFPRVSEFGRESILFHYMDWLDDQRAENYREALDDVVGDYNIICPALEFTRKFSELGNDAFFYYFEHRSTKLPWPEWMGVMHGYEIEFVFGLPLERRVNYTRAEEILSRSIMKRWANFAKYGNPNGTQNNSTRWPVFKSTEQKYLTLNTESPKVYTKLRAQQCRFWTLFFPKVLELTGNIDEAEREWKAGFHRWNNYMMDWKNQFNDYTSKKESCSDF
Conditions: at 2 mg/mL
Description: Inhibition of horse BChE at 2 mg/ml by Ellman's method
Please respond with the number in % and leave the unit unwritten.

Solved cases (5 shown):
Cc1coc2c1C(=O)C(=O)c1c-2ccc2c1CCCC2(C)C    -0.66
COc1cc2oc(=O)ccc2cc1O    3.87
COc1ccc(/C=C/c2cc(O)cc(O[C@@H]3O[C@H](CO)[C@@H](O)[C@H](O)[C@H]3O)c2)cc1O    -4.38
CC[C@H]1CN2CCc3c([nH]c4ccccc34)[C@H]2C[C@@H]1/C(=C\OC)C(=O)OC    87.1
O=c1c(O)c(-c2cc(O)c(O)c(O)c2)oc2cc(O)ccc12    -7.22

So what inhibition did CC[C@@]1(O)C(=O)OCc2c1cc1n(c2=O)Cc2cc3cc(O)ccc3nc2-1 get with Cholinesterase (Equus caballus) (UniProt P81908)?
6.63

// lookup inhibition | system=Cholinesterase (Equus caballus) (UniProt P81908) | key= c1ccc2c(c1)[nH]c1cnccc12
28.7

Param readout= inhibition; system= Cholinesterase (Equus caballus) (UniProt P81908); entry= CC(=O)O[C@H]1CC[C@]2(C=O)[C@H]3CC[C@]4(C)[C@@H](C5=CC(=O)OC5)CC[C@]4(O)[C@@H]3CC[C@]2(O)C1 ; returns value.
-2.95

# get_value(readout= inhibition, system= Cholinesterase (Equus caballus) (UniProt P81908)) for COC1=C(C(C)=O)C2=C(C)Cc3c(OC)c(=O)c(O)c4cc(OC)c5c(OC)cc(O)c6c(c2c3c4c56)C1=O
-0.88

Give inhibition (Cholinesterase (Equus caballus) (UniProt P81908)) of the following compound: Cn1c(-c2ccc3c(c2)OCO3)cc(=O)c2ccccc21
9.48

Which measured inhibition belongs to COc1ccc2c3c1O[C@H]1C[C@@H](O)C=C[C@@]31CCN(C)C2 , tested on Cholinesterase (Equus caballus) (UniProt P81908)?
37.8

What value of inhibition on Cholinesterase (Equus caballus) (UniProt P81908) does CC1=C(/C=C/C(C)=C\C=C\C(C)=C\C(=O)O)C(C)(C)CCC1 have?
-2.78

Entry C[C@@H]1CC[C@]2(NC1)O[C@H]1C[C@H]3[C@@H]4CC=C5C[C@@H](O)CC[C@]5(C)[C@H]4CC[C@]3(C)[C@H]1[C@@H]2C , system Cholinesterase (Equus caballus) (UniProt P81908): what inhibition was measured?
53.7

What measured inhibition is associated with COC(=O)[C@H]1[C@H]2C[C@H]3c4[nH]c5cc(OC)ccc5c4CCN3C[C@H]2C[C@@H](OC(=O)c2cc(OC)c(OC)c(OC)c2)[C@@H]1OC on Cholinesterase (Equus caballus) (UniProt P81908)?
-8.07

Lab note: need inhibition for CO[C@H]1C[C@H](O[C@H]2[C@H](C)[C@@H](O[C@@H]3O[C@H](C)C[C@H](N(C)C)[C@H]3OC(C)=O)[C@@H](C)C[C@@]3(CO3)C(=O)[C@H](C)[C@@H](OC(C)=O)[C@@H](C)[C@@H](C)OC(=O)[C@@H]2C)O[C@@H](C)[C@@H]1OC(C)=O on Cholinesterase (Equus caballus) (UniProt P81908), anyone have it?
-1.09

What value of inhibition on Cholinesterase (Equus caballus) (UniProt P81908) does CC(C)=CCCC1=CC(=O)c2c(O)ccc(O)c2C1=O have?
-2.66

Param readout = inhibition; param system = Cholinesterase (Equus caballus) (UniProt P81908); param query = COc1ccc2c(c[n+](C)c3c4cc5c(cc4ccc23)OCO5)c1OC [CHELERYTHRINE CHLORIDE] ; response: value
83.5

###

Target: UniProtKB O42275
Details: at 2 mg/mL
Description: Inhibition of electric eel AChE at 2 mg/ml by Ellman's method
# inhibition values compiled below
API: value field is a number in %; no unit string.

Consider the following illustrative entries.
c1ccc2c(c1)[nH]c1cnccc12    -1.66
O=C1C=C2C(=CCOC2O)O1 (centres undefined)    5.33
CN1c2ccccc2C(=O)N2CCc3c([nH]c4ccccc34)[C@@H]21    12.4
O=c1cc(-c2ccc(O)c(OC3O[C@H](CO)[C@@H](O)[C@H](O)[C@H]3O)c2)oc2cc(OC3O[C@H](CO)[C@@H](O)[C@H](O)[C@H]3O)cc(O)c12 (some centres undefined)    28.6

Look up inhibition: C1CCN2C[C@@H]3C[C@@H](CN4CCCC[C@@H]34)[C@H]2C1
4.72

// query inhibition value for entry COc1cc([C@@H]2CC(=O)c3c(O)cc(O)cc3O2)ccc1O
29.5

Look at this molecule and give its reported inhibition. CSC(=S)NCc1c[nH]c2ccccc12
-0.26

Which inhibition value is on record for C[C@@H]1[C@H](O)[C@@H](C)/C=C/C=C/C=C/C=C/C=C/C=C/C=C/[C@H](O[C@@H]2O[C@H](C)[C@@H](O)[C@H](N)[C@@H]2O)C[C@@H]2O[C@](O)(C[C@@H](O)C[C@@H](O)[C@H](O)CC[C@@H](O)C[C@@H](O)CC(=O)O[C@H]1C)C[C@H](O)[C@H]2C(=O)O ?
8.91

Param item = COc1ccc(-c2cc(=O)c3c(O)cc(O)cc3o2)cc1O ; retrieve measured inhibition.
-8.89

Suppose we examine the molecule C=C[C@]12CN(C)[C@@H]3[C@H]4CO[C@H](C[C@H]41)[C@]1(C(=O)Nc4ccccc41)[C@@H]32 ; what inhibition value has been reported?
6.89

inhibition for O=C(O)c1cc(N(Cc2ccccc2O)Cc2cc(O)ccc2O)ccc1O ?
2.35

Please look up its inhibition: CN1C[C@H](CO)C[C@@H]2c3cccc4[nH]cc(c34)C[C@H]21
6.82

###

Target: UniProt P81908
Settings: at 2 mg/mL
Property label: inhibition (%)
I only need the number, in %, no unit after it.

Previously resolved entries follow.
OC[C@H]1O[C@@H](O[C@@H]2OC=C[C@H]3[C@H](O)[C@@H]4O[C@]4(CO)[C@@H]23)[C@H](O)[C@@H](O)[C@@H]1O    -5.36
C[C@H]1[C@H](OC(=O)CCC(=O)O)O[C@@H]2O[C@@]3(C)CC[C@H]4[C@H](C)CC[C@@H]1[C@@]24OO3    4.77
C[C@H]1O[C@@H](Oc2c(-c3cc(O)c(O)c(O)c3)oc3cc(O)cc(O)c3c2=O)[C@@H](O)[C@@H](O)[C@@H]1O    -2.1

// moving on: another record for inhibition
Please report the recorded inhibition for CSC(=S)NCc1c[nH]c2ccccc12 .
-5.64

###

Target: Acetylcholinesterase (Electrophorus electricus) (UniProt O42275)
Sequence (O42275 24-633 limits assumed): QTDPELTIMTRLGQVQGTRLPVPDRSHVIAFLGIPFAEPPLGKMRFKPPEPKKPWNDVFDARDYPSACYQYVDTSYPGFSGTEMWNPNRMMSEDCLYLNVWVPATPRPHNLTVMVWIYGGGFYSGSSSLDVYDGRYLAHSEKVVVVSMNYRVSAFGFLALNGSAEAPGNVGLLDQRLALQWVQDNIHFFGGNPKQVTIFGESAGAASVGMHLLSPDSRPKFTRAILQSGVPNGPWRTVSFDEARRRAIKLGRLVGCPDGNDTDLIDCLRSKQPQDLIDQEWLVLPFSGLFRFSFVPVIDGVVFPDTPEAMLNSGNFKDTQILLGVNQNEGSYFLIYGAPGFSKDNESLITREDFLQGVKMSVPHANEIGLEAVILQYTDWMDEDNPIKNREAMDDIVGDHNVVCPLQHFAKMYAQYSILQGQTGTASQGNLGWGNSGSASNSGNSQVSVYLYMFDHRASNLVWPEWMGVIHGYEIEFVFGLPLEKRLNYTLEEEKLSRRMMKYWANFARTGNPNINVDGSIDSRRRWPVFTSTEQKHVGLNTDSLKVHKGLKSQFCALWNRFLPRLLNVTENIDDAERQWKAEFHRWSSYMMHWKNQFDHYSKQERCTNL
Conditions: at 2 mg/mL
Property label: inhibition (%)
Form entry: value (%) — number only.

COc1c2c(cc3c1OCO3)CCN(C)C2    9.58
CC1=CC(=O)C2=C(C)C[C@H](O)[C@@H]3[C@H](OC(=O)[C@H]3C)[C@@H]12    29.5
Cc1c2ccncc2c(C)c2c1[nH]c1ccccc12    -1.87
CCCCCCCCCCC1=C(C)C(=O)C(OC)=C(OC)C1=O    21.8
CCN1C[C@]2(COC)CC[C@H](O)[C@@]34C5C[C@@H]6[C@@H](OC)C[C@](O)(C(CC23)C14)C5[C@H]6OC(C)=O (stereo partly drawn)    28.9

Checklist item: inhibition tested on Acetylcholinesterase (Electrophorus electricus) (UniProt O42275), entry CCC1=C[C@@H]2CN3CCc4c([nH]c5ccccc45)[C@@](C(=O)OC)(C2)[C@@H]13 [CATHARANTHINE BASE] , value?
5.28

Report inhibition for COc1cc2c(cc1OC)[C@@H]1C(=O)c3ccc4c(c3O[C@@H]1CO2)C=CC(C)(C)O4 tested on Acetylcholinesterase (Electrophorus electricus) (UniProt O42275).
-8.14

Query inhibition on Acetylcholinesterase (Electrophorus electricus) (UniProt O42275) for CCCCCCCCCCCCCC(=O)O[C@@H]1[C@@H](C)[C@@]2(O)[C@@H](C=C(CO)C[C@@]3(O)C(=O)C(C)=C[C@@H]23)[C@H]2C(C)(C)[C@]12OC(C)=O
12.9

###

Molecular target: Cholinesterase (Equus caballus)
Settings: at 2 mg/mL
A collection of molecules and their measured inhibition
Your answer is read as %, so omit the unit and give the number.

CO[C@@H]1[C@H](OC(=O)/C=C/C=C/C=C/C=C/C(=O)O)CC[C@]2(CO2)[C@H]1[C@@]1(C)O[C@@H]1CC=C(C)C    -3.3
CCCCCCCCCCCCCC/C(C(=O)O)=C(\C)C(=O)O    9.23
O=C(O)/C=C/c1ccc(O)c(O)c1    0.67
COc1ccc2cc1Oc1ccc(cc1)C[C@H]1c3c(cc4c(c3Oc3cc5c(cc3OC)CCN(C)[C@@H]5C2)OCO4)CCN1C    40.6
CCCCC[C@H](O)/C=C/[C@H]1C=CC(=O)[C@@H]1CCCCCCC(=O)O    -1.82

# inhibition lookup, item CC(=O)O[C@@]12C[C@@H](C)[C@@]3(O)[C@@H](C=C(CO)C[C@]4(O)C(=O)C(C)=C[C@@H]34)[C@@H]1C2(C)C
3.93

Please give the measured inhibition for this molecule: COc1ccc2c(c1)[nH]c1c(C)nccc12
12.1

# get_value(readout='inhibition', item= CC1=CC(=O)c2ccccc2C1=O )
-1.75

Return reported inhibition; argument: O=C1C[C@@H](c2ccc(O)c(O)c2)Oc2cc(O[C@@H]3O[C@H](CO)[C@@H](O)[C@H](O)[C@H]3O)cc(O)c21
-9.51
